Listing of recorded Ki by entry.
- ASSAYED_TARGET: endothiapepsin (Cryphonectria parasitica)
# unit: nM | format: bare number

>>> df
                                   compound  unit_of_measurement  result_number
0  N[C@@H](Cc1c[nH]c2ccccc12)C(=O)N/N=C/c1cccc(/C=N/NC(=O)[C@@H](N)Cc2c[nH]c3ccccc23)c1 [compound 13, bis-acylhydrazone 13]                   nM           25.4

Then there is this compound:
// query Any idea what its Ki is? The compound is N[C@@H](Cc1ccccc1)C(=O)N/N=C/c1cccc(/C=N/NC(=O)[C@@H](N)Cc2ccccc2)c1 [compound 16, bis-acylhydrazone 16]
// result 980

----------
- ASSAYED_TARGET: endothiapepsin (Cryphonectria parasitica, UniProt P11838)
- Construct: gene EAPA; mature active enzyme, monomer
- Sequence (P11838 90-419): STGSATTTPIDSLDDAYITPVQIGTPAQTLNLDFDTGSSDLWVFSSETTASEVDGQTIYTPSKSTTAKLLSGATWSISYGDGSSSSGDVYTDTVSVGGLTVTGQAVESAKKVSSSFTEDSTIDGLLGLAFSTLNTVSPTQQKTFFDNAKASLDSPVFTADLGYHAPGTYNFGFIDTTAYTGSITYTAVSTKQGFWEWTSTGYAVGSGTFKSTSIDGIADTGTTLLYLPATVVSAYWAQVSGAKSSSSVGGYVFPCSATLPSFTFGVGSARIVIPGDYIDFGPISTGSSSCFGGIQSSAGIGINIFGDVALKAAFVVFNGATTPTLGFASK
- EXPERIMENTAL_DETAILS: fluorescence-based protease assay adapted from HIV protease assay
- Assay type: biochemical
OBSERVATION_TYPE: IC50 (nM)
# unit: nM | format: bare number

// query Give its IC50 value. Item: N[C@@H](Cc1ccccc1)C(=O)N/N=C/c1cccc(/C=N/NC(=O)[C@@H](N)Cc2ccccc2)c1 [compound 16, bis-acylhydrazone 16]
// result 2100
